# Assay comment: In vivo mouse PK study
# Set-up: species or system mice
# Test parameters: plasma, IV 3 mg/kg or PO 30 mg/kg study, footnote 2 not given
# Method: Mice were dosed with either 1 mg/ml (IV) at a dose of 3 mg/kg or 3 mg/ml (PO) at a dose of 30 mg/kg in 40% PEG400 + 60% (30% Solutol) (final pH ~ 7). Blood samples were drawn at 5 mins, 15 mins, 30 mins, 1 hr, 2 hrs, 4 hrs, 8 hrs, and 24 hs from mice dosed with the IV route and at 1 hr, 4 hrs, 8 hrs and 24 hrs from mice dosed orally. […] All samples are analyzed on LC/MS/MS using an AB Sciex API 4000 instrument, coupled to a Shimadzu LC-20AD LC Pump system.
Measured quantity: Cmax (µM)
Please state the figure in µM; there is no need to write the unit.

Prompt: Answer with reported Cmax of `Nc1nccc2c(Br)cc3cc(C(=O)O)ccc3c12`
Response: 29

* * *

# System: MDR1
# Assay comment: MDCK-MDR1 permeability assay
# Assay type: in vitro ADME
# Test parameters: dog, MDCK-MDR1, read-out: Efflux Ratio (B-A/A-B)
Measured quantity: efflux ratio at 1 h, 5 µM
Give only the figure.

Prompt: Please report the measured efflux ratio at 1 h, 5 µM for Nc1nccc2c(Br)cc3cc(C(=O)O)ccc3c12 [MK256] tested on MDR1.
Response: 0.2

* * *

# Assay comment: MDCK-MDR1 permeability assay
# Assay type: in vitro ADME
# Test parameters: dog, MDCK-MDR1
Measured quantity: Papp B→A at 1 h, 5 μM (×10⁻⁶ cm/s)
Please state the figure in ×10⁻⁶ cm/s; there is no need to write the unit.

Prompt: Answer with reported Papp B→A at 1 h, 5 μM of `Nc1nccc2c(Br)cc3cc(C(=O)O)ccc3c12`
Response: 14

* * *

# System: MUTZ-8
# Assay comment: Cell proliferation assay (CellTiter-Glo, 7-day)
# Type: cell-based
# Test parameters: MUTZ-8, 168 h; 7-day; bound given in text; read-out: IC50
Measured quantity: IC50

Prompt: Please report the measured IC50 for `Nc1nccc2c(Br)cc3cc(C(=O)O)ccc3c12` tested on MUTZ-8.
Response: > 2 µM

* * *

# Assay comment: Kinetic solubility assay
# Type: physicochemical
# Test parameters: PBS buffer, aqueous buffer, kinetic from dmso stock, pH 7.4, read-out: KSOL (μM) PBS (PH 7.4)
Measured quantity: solubility kinetic at 1.5 h (µM)
Please state the figure in µM; there is no need to write the unit.

Prompt: Answer with reported solubility kinetic at 1.5 h of `Nc1nccc2c(Br)cc3cc(C(=O)O)ccc3c12`
Response: 566

* * *

# Assay comment: In vivo mouse PK study
# Design: species or system mice
# Test parameters: plasma, PO 30 mg/kg vs IV 3 mg/kg
Measured quantity: bioavailability (%)
Please state the figure in %; there is no need to write the unit.

Prompt: Answer with reported bioavailability of Nc1nccc2c(Br)cc3cc(C(=O)O)ccc3c12 [MK256]
Response: 59

* * *

# Assay target: CDK19/cyclin C (Homo sapiens)
# Sequence (Q9BWU1 whole entry): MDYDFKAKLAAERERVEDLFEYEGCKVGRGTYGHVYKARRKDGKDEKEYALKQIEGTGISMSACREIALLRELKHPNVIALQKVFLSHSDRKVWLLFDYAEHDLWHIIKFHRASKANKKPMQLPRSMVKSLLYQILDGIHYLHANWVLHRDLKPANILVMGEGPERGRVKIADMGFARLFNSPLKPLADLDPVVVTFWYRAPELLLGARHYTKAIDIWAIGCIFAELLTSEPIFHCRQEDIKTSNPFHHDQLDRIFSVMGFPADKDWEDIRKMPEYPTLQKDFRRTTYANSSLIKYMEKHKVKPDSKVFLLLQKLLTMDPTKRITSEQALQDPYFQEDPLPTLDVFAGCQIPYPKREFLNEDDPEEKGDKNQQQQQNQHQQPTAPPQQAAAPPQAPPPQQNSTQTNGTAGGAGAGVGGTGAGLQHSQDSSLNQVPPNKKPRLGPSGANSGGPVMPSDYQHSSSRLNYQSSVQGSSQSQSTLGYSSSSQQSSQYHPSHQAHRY
# Sequence (P24863 whole entry partner): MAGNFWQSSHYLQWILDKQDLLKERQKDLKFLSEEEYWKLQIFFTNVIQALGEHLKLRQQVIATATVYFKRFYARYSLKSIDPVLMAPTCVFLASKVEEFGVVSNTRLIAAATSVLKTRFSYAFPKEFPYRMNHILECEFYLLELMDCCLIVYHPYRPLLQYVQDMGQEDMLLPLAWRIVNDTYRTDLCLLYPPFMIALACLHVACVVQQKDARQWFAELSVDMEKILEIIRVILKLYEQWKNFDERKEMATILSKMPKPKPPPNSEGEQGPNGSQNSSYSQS
# Assay comment: SelectScreen kinase profiling, IC50
# Test parameters: read-out: IC50 against CDK19/cyclin C
Measured quantity: IC50 (nM)
Please state the figure in nM; there is no need to write the unit.

Prompt: Answer with reported IC50 of `Nc1nccc2c(Br)cc3cc(C(=O)O)ccc3c12`
Response: 3.3
